src = ChEMBL document CHEMBL2218924

target: Cyclin-dependent kinase 1/cyclin B1 (Homo sapiens) (UniProt P06493+P14635); settings: at 10 µM
Sequence (P06493 whole entry, looked up): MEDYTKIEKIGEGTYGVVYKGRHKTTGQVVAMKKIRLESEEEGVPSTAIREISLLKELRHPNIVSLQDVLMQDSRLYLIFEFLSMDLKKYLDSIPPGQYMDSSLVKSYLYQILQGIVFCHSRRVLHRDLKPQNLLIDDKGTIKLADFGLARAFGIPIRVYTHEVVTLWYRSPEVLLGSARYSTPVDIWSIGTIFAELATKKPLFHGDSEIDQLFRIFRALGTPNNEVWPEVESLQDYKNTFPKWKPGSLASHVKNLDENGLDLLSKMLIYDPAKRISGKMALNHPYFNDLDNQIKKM
Sequence (P14635 whole entry, looked up): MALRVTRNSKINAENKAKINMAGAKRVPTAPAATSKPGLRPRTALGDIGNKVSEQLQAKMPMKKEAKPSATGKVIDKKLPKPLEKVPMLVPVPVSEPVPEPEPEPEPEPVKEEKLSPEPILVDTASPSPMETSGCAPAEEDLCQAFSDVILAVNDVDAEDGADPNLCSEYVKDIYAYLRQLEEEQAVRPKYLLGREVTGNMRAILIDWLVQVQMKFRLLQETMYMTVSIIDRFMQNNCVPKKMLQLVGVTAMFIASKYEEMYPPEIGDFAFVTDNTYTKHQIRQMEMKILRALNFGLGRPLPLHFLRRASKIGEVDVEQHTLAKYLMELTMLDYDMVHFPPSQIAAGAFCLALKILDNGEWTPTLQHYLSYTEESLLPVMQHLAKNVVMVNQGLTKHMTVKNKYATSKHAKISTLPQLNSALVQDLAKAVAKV
Label Satisfied when residual activity < 90%; otherwise Not satisfied.

(Q) Lab note: residual activity threshold 90%. Does this compound come in strictly under it? Cc1ccc(NC2=CC(=O)c3sc(C)nc3C2=O)cc1
(A) Not satisfied

(Q) Param item: O=c1cc(-c2cccc3c2Sc2ccccc2S3)oc(N2CCOCC2)c1
(A) Satisfied

(Q) Param item: Cn1cnc2cc3c(Nc4cccc(Br)c4)ncnc3cc21
(A) Not satisfied

(Q) Param item: O=C1NC(=O)/C(=C\c2ccc3nccnc3c2)S1
(A) Satisfied

(Q) Param item: Ic1cccc(CSc2nnc(-c3ccncc3)o2)c1
(A) Satisfied

(Q) Param item: O=C1Nc2ccc(Br)cc2/C1=C\c1cc2c([nH]1)CCCC2
(A) Not satisfied

(Q) Param item: Nc1nc(Nc2ccc(S(N)(=O)=O)cc2)nn1C(=S)Nc1c(F)cccc1F
(A) Satisfied

(Q) Param item: O=C(O)c1ccc2c3c1cccc3c(=O)n1c3ccccc3nc21
(A) Satisfied

(Q) Param item: O=C(Nc1cccc(Nc2nccc(Nc3cccc(C(F)(F)F)c3)n2)c1)C1CC1
(A) Not satisfied

(Q) Param item: CC(=O)c1ccc(N2CCOCC2)cc1O
(A) Not satisfied

(Q) Param item: CN(C)CCCn1cc(C2=C(c3c[nH]c4ccccc34)C(=O)NC2=O)c2ccccc21
(A) Satisfied

(Q) Param item: COc1cc2ncnc(Nc3ccc(O)c(Br)c3)c2cc1OC
(A) Satisfied

(Q) Param item: COc1cc2ncnc(Nc3ccc(Oc4ccccc4)cc3)c2cc1OC
(A) Not satisfied
